# study_target: human adenosine A2A receptors (Homo sapiens, UniProt P29274)
# Sequence (P29274 whole entry): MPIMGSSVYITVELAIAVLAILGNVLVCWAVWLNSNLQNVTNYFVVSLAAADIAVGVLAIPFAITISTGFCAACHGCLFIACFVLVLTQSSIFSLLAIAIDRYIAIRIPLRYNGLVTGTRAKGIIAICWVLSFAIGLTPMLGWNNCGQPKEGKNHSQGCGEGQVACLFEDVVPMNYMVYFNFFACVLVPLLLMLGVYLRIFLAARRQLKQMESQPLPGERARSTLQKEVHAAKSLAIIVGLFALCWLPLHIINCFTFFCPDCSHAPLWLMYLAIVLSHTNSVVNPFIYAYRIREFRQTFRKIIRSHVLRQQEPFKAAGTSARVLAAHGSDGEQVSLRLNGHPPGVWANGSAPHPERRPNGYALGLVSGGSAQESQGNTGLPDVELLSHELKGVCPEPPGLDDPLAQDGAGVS
# test_description: Binding affinities at hA2A receptors, displacement of [3H]-CGS 21680
# study_conditions: in vitro binding, radioligand [3H]-CGS 21680
pKi: −log10 of the molar value.
Decide by pKi: equal to or exceeding 6 means met, less means not met.

[
  {
    "molecule": "O=[N+]([O-])c1ccccc1C(O)c1cc(C(F)(F)F)nc2c(C(F)(F)F)cccc12 (stereo not drawn)",
    "cat": "not met"
  },
  {
    "molecule": "CCc1cccc2c(C(O)c3ccccc3)cc(C(F)(F)F)nc12 (stereo not drawn)",
    "cat": "not met"
  },
  {
    "molecule": "OC(c1c(Cl)cccc1Cl)c1cc(C(F)(F)F)nc2c(C(F)(F)F)cccc12 (stereo not drawn)",
    "cat": "met"
  }
]

* * *

Entries and their measured melting point follow.

[
  {
    "compound": "OC1(c2cc(C(F)(F)F)nc3c(C(F)(F)F)cccc23)CCCc2ccccc21 (centres unmarked)",
    "melting point": "128.8 to 129.4 °C"
  },
  {
    "compound": "OC(c1ccccc1)c1cc(Cl)nc2ccccc12 (centres unmarked)",
    "melting point": "144 to 146 °C"
  },
  {
    "compound": "OC(c1cc(NCc2ccccc2)nc2ccccc12)C1CCCCC1 (centres unmarked)",
    "melting point": "122.5 to 123.1 °C"
  },
  {
    "compound": "COc1cccc2c(C(O)c3ccsc3)cc(C(F)(F)F)nc12 (centres unmarked)",
    "melting point": "157 to 158 °C"
  },
  {
    "compound": "Cc1cccc2c(C(O)c3ccccc3)cc(Br)nc12 (centres unmarked)",
    "melting point": "130.7 to 131.8 °C"
  }
]

* * *

Counter-ions that a name gives are not always drawn.

[
  {
    "compound": "Cc1cccc2c(C(O)c3ccccn3)cc(Br)nc12 (stereo not shown) [Example 64]",
    "melting point": "149 °C (dec.)"
  },
  {
    "compound": "OC(c1cccs1)c1ccnc2ccccc12 (stereo not drawn) (as salt: salt) [Example 49, α-(2-Thienyl)-4-quinolinemethanol]",
    "melting point": "173 °C (dec.)"
  },
  {
    "compound": "CCc1cccc2c(C(O)c3ccccc3)cc(C(F)(F)F)nc12 (stereo not shown) [Example 31]",
    "melting point": "102 to 104 °C"
  },
  {
    "compound": "Oc1cc(C(O)(c2ccccc2)c2ccccc2)c2ccccc2n1 [Example 90]",
    "melting point": "> 350 °C"
  },
  {
    "compound": "OC(c1ccccc1)c1cc(C(F)(F)F)nc2c(C(F)(F)F)cccc12 (stereo not shown) [Example 1]",
    "melting point": "151 to 152 °C"
  },
  {
    "compound": "Nc1ccccc1C(O)c1cc(C(F)(F)F)nc2c(C(F)(F)F)cccc12 (stereo not shown) [Example 76]",
    "melting point": "145.9 to 146.2 °C"
  },
  {
    "compound": "Cc1cc(C(O)c2ccsc2)c2ccccc2n1 (stereo not shown) (as salt: salt) [Example 42]",
    "melting point": "200 °C (dec.)"
  },
  {
    "compound": "COc1ccccc1C(O)c1cc(C(F)(F)F)nc2c(C(F)(F)F)cccc12 (stereo not shown) [Example 23]",
    "melting point": "132 to 134 °C"
  },
  {
    "compound": "Cc1cccc2c(C(O)c3ccsc3)cc(C(F)(F)F)nc12 (stereo not shown) [Example 28]",
    "melting point": "113 to 114 °C"
  },
  {
    "compound": "Cc1cccc2c(C(O)c3ccccn3)cc(O)nc12 (stereo not shown) [Example 88]",
    "melting point": "215 °C (dec.)"
  },
  {
    "compound": "OC(c1ccccc1F)c1cc(C(F)(F)F)nc2c(C(F)(F)F)cccc12 (stereo not shown) [Example 22]",
    "melting point": "119.5 to 120.8 °C"
  },
  {
    "compound": "OC(c1ccccc1Br)c1cc(C(F)(F)F)nc2c(C(F)(F)F)cccc12 (stereo not shown) [Example 21]",
    "melting point": "147 to 149 °C"
  },
  {
    "compound": "OC(c1ccccc1)c1cc(-c2ccccc2)nc2ccccc12 (stereo not drawn) [Example 91, 2,α-Diphenyl-4-quinolinemethanol]",
    "melting point": "111 to 112 °C"
  }
]
